Where do these numbers come from? They come from patent US20190134000A1.

experimental_target: UniProtKB P05177
Sequence (P05177 1-516): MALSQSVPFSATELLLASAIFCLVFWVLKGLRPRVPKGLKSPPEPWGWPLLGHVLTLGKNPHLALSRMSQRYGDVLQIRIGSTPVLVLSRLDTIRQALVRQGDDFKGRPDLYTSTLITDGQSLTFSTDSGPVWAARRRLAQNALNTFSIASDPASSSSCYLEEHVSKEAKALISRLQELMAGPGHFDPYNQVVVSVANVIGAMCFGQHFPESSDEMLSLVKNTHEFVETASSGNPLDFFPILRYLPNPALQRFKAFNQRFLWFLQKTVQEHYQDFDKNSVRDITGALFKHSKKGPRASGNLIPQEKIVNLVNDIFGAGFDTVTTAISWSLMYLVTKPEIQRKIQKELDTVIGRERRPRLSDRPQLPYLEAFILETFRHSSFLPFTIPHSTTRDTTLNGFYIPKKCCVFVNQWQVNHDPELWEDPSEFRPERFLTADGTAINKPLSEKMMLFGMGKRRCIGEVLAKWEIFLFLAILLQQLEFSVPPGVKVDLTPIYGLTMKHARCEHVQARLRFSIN
method: CYP inhibition screen CYP1A2
Format: in vitro ADME
condition_set: human
measurement_kind: inhibition at 30 µM
# number then unit; no other words

Requested field: inhibition at 30 µM. Item: CN1[C@@H]2CC[C@H]1C[C@@H](OC(=O)c1c[nH]c3cc(F)ccc13)C2
0.33%

###

For each record, write down the corresponding microsomal CLint at 1 μM.
method: in vitro
condition_set: rat, microsomes, NADPH-Dependent CLint
Write the value in µL/min/mg as a bare number.

Requested field: microsomal CLint at 1 μM. Item: CN1[C@@H]2CC[C@H]1C[C@@H](OC(=O)c1c[nH]c3cc(F)ccc13)C2
187

Do the same for CN1[C@@H]2CC[C@H]1C[C@@H](OC(=O)c1c[nH]c3ccccc13)C2 [Compound F03, tropisetron, reference compound] please
367

###

experimental_target: CYP2C19 (Homo sapiens)
Sequence (P33261 whole entry): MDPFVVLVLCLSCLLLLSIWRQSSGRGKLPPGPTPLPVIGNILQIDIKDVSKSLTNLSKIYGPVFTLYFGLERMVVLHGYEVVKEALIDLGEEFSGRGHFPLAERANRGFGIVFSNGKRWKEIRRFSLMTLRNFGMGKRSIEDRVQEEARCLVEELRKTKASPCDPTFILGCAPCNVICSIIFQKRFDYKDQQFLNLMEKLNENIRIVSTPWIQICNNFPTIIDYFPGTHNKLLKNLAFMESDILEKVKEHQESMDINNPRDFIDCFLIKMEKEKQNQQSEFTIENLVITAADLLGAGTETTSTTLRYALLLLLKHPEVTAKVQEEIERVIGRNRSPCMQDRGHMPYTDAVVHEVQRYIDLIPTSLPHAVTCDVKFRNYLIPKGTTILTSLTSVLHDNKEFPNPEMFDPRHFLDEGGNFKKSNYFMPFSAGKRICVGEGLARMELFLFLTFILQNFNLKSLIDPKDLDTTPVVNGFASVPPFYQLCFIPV
method: CYP inhibition screen CYP2C19
Type: in vitro ADME
condition_set: human; 30 μM; read-out: CYP2C19 inhibition
measurement_kind: inhibition at 30 µM
# number then unit; no other words

inhibition at 30 µM of CN1[C@@H]2CC[C@H]1C[C@@H](OC(=O)c1c[nH]c3ccccc13)C2 [Compound F03, tropisetron, reference compound] on CYP2C19 (Homo sapiens)?
0%

###

experimental_target: CYP2C9 (Homo sapiens, UniProt P11712)
Sequence (P11712 whole entry): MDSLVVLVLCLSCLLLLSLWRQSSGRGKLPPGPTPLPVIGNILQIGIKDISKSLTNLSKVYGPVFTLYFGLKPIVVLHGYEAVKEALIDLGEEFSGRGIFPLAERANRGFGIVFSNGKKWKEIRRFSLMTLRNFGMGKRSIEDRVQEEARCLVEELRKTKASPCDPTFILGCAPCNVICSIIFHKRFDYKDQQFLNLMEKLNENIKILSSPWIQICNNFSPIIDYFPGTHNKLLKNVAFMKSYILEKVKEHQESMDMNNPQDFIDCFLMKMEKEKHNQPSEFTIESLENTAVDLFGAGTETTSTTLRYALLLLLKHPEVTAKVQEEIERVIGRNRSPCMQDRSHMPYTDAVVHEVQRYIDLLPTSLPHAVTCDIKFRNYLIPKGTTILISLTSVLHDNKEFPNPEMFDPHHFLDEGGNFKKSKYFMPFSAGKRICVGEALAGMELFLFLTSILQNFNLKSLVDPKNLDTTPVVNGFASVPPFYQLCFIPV
method: CYP inhibition screen CYP2C9
Assay type: in vitro ADME
condition_set: human; 10 μM; read-out: CYP2C9 inhibition
measurement_kind: inhibition at 10 µM (%)
Write the value in % as a bare number.

Requested field: inhibition at 10 µM. Item: CN1[C@@H]2CC[C@H]1C[C@@H](OC(=O)c1c[nH]c3ccccc13)C2 [Compound F03, tropisetron, reference compound]
15.9

###

experimental_target: CYP3A4 (Homo sapiens)
Sequence (P08684 whole entry): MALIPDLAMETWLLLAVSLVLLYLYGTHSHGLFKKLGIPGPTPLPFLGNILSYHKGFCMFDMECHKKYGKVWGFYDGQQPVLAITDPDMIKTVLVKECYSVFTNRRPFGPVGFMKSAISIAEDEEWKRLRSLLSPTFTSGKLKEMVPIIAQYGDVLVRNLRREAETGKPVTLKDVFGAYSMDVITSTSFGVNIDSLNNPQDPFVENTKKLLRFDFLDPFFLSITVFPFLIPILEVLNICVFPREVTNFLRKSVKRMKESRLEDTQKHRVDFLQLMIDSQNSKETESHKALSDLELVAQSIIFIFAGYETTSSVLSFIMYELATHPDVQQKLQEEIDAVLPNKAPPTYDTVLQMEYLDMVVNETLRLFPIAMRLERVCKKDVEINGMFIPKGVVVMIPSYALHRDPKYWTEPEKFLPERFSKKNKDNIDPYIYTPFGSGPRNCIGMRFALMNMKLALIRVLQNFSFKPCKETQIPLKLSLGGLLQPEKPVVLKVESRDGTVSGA
method: CYP inhibition screen CYP3A4
Type: in vitro ADME
condition_set: human, CYP3A4 testosterone inhibition
measurement_kind: inhibition at 10 µM (%)
Write the value in % as a bare number.

Requested field: inhibition at 10 µM. Item: CN1[C@@H]2CC[C@H]1C[C@@H](OC(=O)c1c[nH]c3cc(F)ccc13)C2
5.2

###

experimental_target: CYP2D6 (Homo sapiens, UniProt P10635)
Sequence (P10635 whole entry): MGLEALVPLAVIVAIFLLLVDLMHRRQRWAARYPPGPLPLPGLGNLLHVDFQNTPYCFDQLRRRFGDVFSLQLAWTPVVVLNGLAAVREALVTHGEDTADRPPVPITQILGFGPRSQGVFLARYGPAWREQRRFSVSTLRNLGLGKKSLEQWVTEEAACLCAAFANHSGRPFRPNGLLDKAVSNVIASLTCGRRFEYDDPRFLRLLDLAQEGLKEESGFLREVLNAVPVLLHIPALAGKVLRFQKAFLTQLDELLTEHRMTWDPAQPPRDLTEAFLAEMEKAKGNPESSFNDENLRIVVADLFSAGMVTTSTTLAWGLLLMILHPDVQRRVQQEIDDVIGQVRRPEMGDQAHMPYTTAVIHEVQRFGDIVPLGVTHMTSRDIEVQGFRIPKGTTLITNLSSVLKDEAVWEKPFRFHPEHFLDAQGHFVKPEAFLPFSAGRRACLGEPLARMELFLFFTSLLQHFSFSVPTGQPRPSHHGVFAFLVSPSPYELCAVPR
measurement_kind: IC50

Requested field: IC50. Item: CN1[C@@H]2CC[C@H]1C[C@@H](OC(=O)c1c[nH]c3cc(F)ccc13)C2
> 30 µM

###

method: in vitro
condition_set: rat, microsomes, NADPH-Dependent T1/2
measurement_kind: half-life at 1 μM (min)
Write the value in min as a bare number.

Requested field: half-life at 1 μM. Item: CN1[C@@H]2CC[C@H]1C[C@@H](OC(=O)c1c[nH]c3ccccc13)C2 [Compound F03, tropisetron, reference compound]
6.3

Do the same for CN1[C@@H]2CC[C@H]1C[C@@H](OC(=O)c1c[nH]c3cc(F)ccc13)C2 [Compound C41] please
12.4

###

For each record, write down the corresponding microsomal CLint at 1 μM.
method: in vitro
condition_set: dog, microsomes, NADPH-Free CLint

Requested field: microsomal CLint at 1 μM. Item: CN1[C@@H]2CC[C@H]1C[C@@H](OC(=O)c1c[nH]c3cc(F)ccc13)C2 [Compound C41]
< 9.6 µL/min/mg

Do the same for CN1[C@@H]2CC[C@H]1C[C@@H](OC(=O)c1c[nH]c3ccccc13)C2 [Compound F03, tropisetron, reference compound] please
< 9.6 µL/min/mg

Do the same for CC(=O)CC(c1ccccc1)c1c(O)c2ccccc2oc1=O (stereo not drawn) [warfarin] please
< 9.6 µL/min/mg

###

experimental_target: CYP2C9 (Homo sapiens)
method: CYP inhibition screen CYP2C9
Type: in vitro ADME
condition_set: human; 30 μM; read-out: CYP2C9 inhibition
measurement_kind: inhibition at 30 µM
# number then unit; no other words

Requested field: inhibition at 30 µM. Item: CN1[C@@H]2CC[C@H]1C[C@@H](OC(=O)c1c[nH]c3ccccc13)C2 [Compound F03, tropisetron, reference compound]
23.3%

###

method: in vivo
condition_set: rat, iv
measurement_kind: AUC(0-t) (ng·h/mL)
Write the value in ng·h/mL as a bare number.

Requested field: AUC(0-t). Item: CN1[C@@H]2CC[C@H]1C[C@@H](OC(=O)c1c[nH]c3cc(F)ccc13)C2
330

###

method: in vivo
condition_set: rat, po, Cmax
measurement_kind: Cmax (ng/g)
Write the value in ng/g as a bare number.

Requested field: Cmax. Item: CN1[C@@H]2CC[C@H]1C[C@@H](OC(=O)c1c[nH]c3cc(F)ccc13)C2 [Compound C41]
3250
